biological target: HLA-C*14:02; test: IEDB peptide-MHC binding, purified MHC/direct/fluorescence; filed as Kd, often an IC50 or EC50 that approximates it; bounds were set here for any values at or beyond the usual limits of such assays; settings: source organism: Entamoeba histolytica HM-1:IMSS
measurementLabel: pKd
In plain terms, pKd is the concentration in mol/L turned into minus its base-10 logarithm.

// query Item "SMFERDFHF" has what recorded pKd?
// result 5.49

* * *

molecular target: HLA-A*29:02; test: IEDB peptide-MHC binding, purified MHC/competitive/radioactivity; filed as Kd, often an IC50 or EC50 that approximates it; bounds were set here for any values at or beyond the usual limits of such assays; settings: source organism: Mammarenavirus guanaritoense
measurementLabel: Kd

// query Query Kd on HLA-A*29:02 for "MLDDLTMGY"
// result 125 nM

Data provenance is the Immune Epitope Database (IEDB).
